- protocol.description: Inhibition of His-tagged human recombinant 2N4R tau protein aggregation assessed as inhibition octadecyl sulphate-induced fibrillation by filter trap assay
pIC50: −log10 of the molar value.
property.name: pIC50

{"molecule": "CCC(/C=C1\\Sc2ccc(OC)cc2N1CCO)=C\\c1sc2ccc(OC)cc2[n+]1CCO", "reported": 6.54}
{"molecule": "CCN1/C(=C/C=C/c2sc3ccccc3[n+]2CC)Sc2ccccc21", "reported": 6.02}
{"molecule": "CCN1/C(=C/C=C/C=C/c2sc3ccccc3[n+]2CC)Sc2ccccc21 [DITHIAZANINE IODIDE]", "reported": 5.67}
{"molecule": "CCN1/C(=C/c2sc3ccccc3[n+]2CC)Sc2ccccc21", "reported": 5.00}
{"molecule": "CCN1/C(=C/C(C)=C/c2sc3c4ccccc4ccc3[n+]2CC)Sc2c1ccc1ccccc21", "reported": 5.48}

[P] CCCN1/C(=C/C=C/C2=[N+](CCC)c3ccccc3C2(C)C)C(C)(C)c2ccccc21
[Q] CCN1/C(=C/C=C/C=C/C=C/c2sc3ccccc3[n+]2CC)Sc2ccccc21
[R] CCN1/C(=C/C(C)=C/c2sc3ccccc3[n+]2CC)Sc2ccccc21.[I-]
Input: Reorder the items by pIC50, least to greatest. Answer format: the labels, ordered as requested.
Output: Q, P, R

* * *

- protocol.description: Inhibition of His-tagged human recombinant 2N4R tau protein aggregation assessed as inhibition octadecyl sulphate-induced fibrillation by filter trap assay
property.name: IC50

Some solved cases for reference:
{"smiles.structure": "CCCCCCN1/C(=C/C=C/c2sc3ccccc3[n+]2CCCCCC)Sc2ccccc21", "IC50": "> 10 µM"}
{"smiles.structure": "CCN1/C(=C/C=C/c2oc3ccccc3[n+]2CC)Oc2ccccc21", "IC50": "> 10 µM"}

Input: Input CC(/C=C1\Sc2ccccc2N1CCCS(=O)(=O)[O-])=C\c1sc2ccccc2[n+]1CCCS(=O)(=O)[O-].CC[n+]1ccccc1 , output reported IC50.
Output: > 10 µM
